molecular target: Solute carrier family 2, facilitated glucose transporter member 1 (Homo sapiens) (UniProt P11166); experiment: ST_JUDE_LEISH: Cytotoxicity at 2uM final concentration against transgenic Leishmania Mexicana promastigotes LmGLUT1 that are glucose transport deficient and complemented with the human glucose transporter GLUT1. Activity is measured by DNA content using SYBR green in vitro; format: functional
Sequence (P11166 whole entry): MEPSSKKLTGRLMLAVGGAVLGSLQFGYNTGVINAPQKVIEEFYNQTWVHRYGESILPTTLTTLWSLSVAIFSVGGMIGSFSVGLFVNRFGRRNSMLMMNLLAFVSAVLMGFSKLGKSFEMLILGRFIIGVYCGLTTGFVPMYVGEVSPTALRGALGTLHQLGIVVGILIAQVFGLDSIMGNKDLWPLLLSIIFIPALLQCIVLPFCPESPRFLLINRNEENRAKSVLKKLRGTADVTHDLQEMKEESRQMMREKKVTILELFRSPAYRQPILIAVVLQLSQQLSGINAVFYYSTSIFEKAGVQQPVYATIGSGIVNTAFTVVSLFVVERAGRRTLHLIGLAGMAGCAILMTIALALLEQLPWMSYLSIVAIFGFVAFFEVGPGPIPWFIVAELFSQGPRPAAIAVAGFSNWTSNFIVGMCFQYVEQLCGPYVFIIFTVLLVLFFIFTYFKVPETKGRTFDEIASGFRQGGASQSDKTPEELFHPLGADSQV
measure: inhibition (%)

compound: Cc1ccc(Cc2c[nH]c(NCCSCc3ccc(CN4CCOCC4)o3)nc2=O)cn1
experimental value: 2.52
//
compound: Cc1cc(N[C@@H](Cc2ccccc2)C(=O)NCc2cccs2)nc(NCCc2ccccc2)n1
experimental value: 2.96
//
compound: CCC(N)(C#Cc1ccc(-c2c(C)[nH]c(C)c(Br)c2=O)cc1)CC
experimental value: 2.45
//
compound: CCOc1cc(C)ccc1C1CCN(CCCCNC(=O)c2ccc(NC(=O)c3cc(Cl)cc(Cl)c3)cc2)CC1
experimental value: 2.78
//
compound: NC(=O)c1cccc(CNCc2ccc(-c3cccc(-c4nc5ccccc5[nH]4)c3)cc2)c1
experimental value: 5.8
//
compound: CC(C)C1C(O)=C(c2ccc3ccccc3c2)C(=O)N1Cc1cccc(F)c1 (stereo unspecified)
experimental value: 6.97
//
compound: O=C1Nc2ccc3ncccc3c2/C1=C/Nc1ccc(N2CCN(CCO)CC2)cc1
experimental value: 2.74
//
compound: CN1CCC[C@H]1COc1ccc(CN2CC[C@H](NC(=O)c3ccc(Cl)c(Cl)c3)C2)cc1Cl
experimental value: 1.83
//
compound: COc1cc(NC(=O)/C=C/c2ccc(-c3ccccc3)cc2)ccc1OCCN(C(C)C)C(C)C
experimental value: 60.5
//
compound: CC(=O)Nc1ccc(C2NC(=O)NC(c3ccccc3)=C2c2nc3ccccc3s2)cc1 (stereo unspecified)
experimental value: 3.15
//
compound: Clc1cccc(C=NNc2nc(=Nc3ccccc3)[nH]c(=Nc3ccccc3)[nH]2)c1
experimental value: 8.44

----------
# inhibition per entry
molecular target: Glucose transporter (Leishmania mexicana); experiment: ST_JUDE_LEISH: Cytotoxicity at 2uM final concentration against transgenic Leishmania Mexicana promastigotes LmGT2 that are glucose transport deficient and complemented with the L. Mexicana glucose transporter 2. Activity is measured by DNA content using SYBR green in vitro; format: functional
measure: inhibition

molecule: COc1cc(SC)c(Br)cc1-c1nc2ccncc2[nH]1
target desc: Glucose transporter (Leishmania mexicana)
experimental value: 4.52%

molecule: CCc1cn2c3c(cc(C(=O)N[C@@H](Cc4ccccc4)[C@H](O)CNC4CCOCC4)cc13)N(C(C)C)S(=O)(=O)CC2
target desc: Glucose transporter (Leishmania mexicana)
experimental value: 0.93%

molecule: CCN(CC)CCOC(=O)c1ccc(NC(=O)c2cc(-c3ccc(C)cc3)nc3ccccc23)cc1
target desc: Glucose transporter (Leishmania mexicana)
experimental value: 1.21%

molecule: COc1ccc(-c2cnc3ccc(NCc4ccc(F)cc4)nn23)cc1OC
target desc: Glucose transporter (Leishmania mexicana)
experimental value: 1.96%

molecule: COc1cc2ccccc2c(OC)c1CNCCCCCCNCc1c(OC)cc2ccccc2c1OC
target desc: Glucose transporter (Leishmania mexicana)
experimental value: 12.4%

molecule: COc1cc(F)c2nccc([C@@H](O)CN3CCC(NCc4nc5cccc(F)c5[nH]4)CC3)c2c1
target desc: Glucose transporter (Leishmania mexicana)
experimental value: 3.66%

molecule: Cc1cc(N)c2cc(NC(=O)/C=C/c3ccccc3Cl)ccc2n1
target desc: Glucose transporter (Leishmania mexicana)
experimental value: -0.21%

molecule: Cc1cc(N[C@@H](Cc2ccccc2)C(=O)Nc2ccccc2)nc(NCCc2cccnc2)n1
target desc: Glucose transporter (Leishmania mexicana)
experimental value: 9.02%

molecule: O=C(NCCc1cccc(F)c1)c1ccc(N2CCN(c3ccncc3)CC2)cn1
target desc: Glucose transporter (Leishmania mexicana)
experimental value: 6.9%

molecule: COc1ccc(-c2cccc(NC(=O)c3cccc(C#N)c3)c2)cc1CN1CCNCC1
target desc: Glucose transporter (Leishmania mexicana)
experimental value: 10.6%

molecule: CCOc1cc(C)ccc1N1CCN(CCN2CCC(NC(=O)c3ccc(-c4ccc(C#N)cc4)cc3)CC2)CC1
target desc: Glucose transporter (Leishmania mexicana)
experimental value: 2.27%

molecule: Cc1cc(C(=O)Nc2ccc3c(c2)CCN3C2CCN(Cc3csc4ccccc34)C2)no1 (stereo not given)
target desc: Glucose transporter (Leishmania mexicana)
experimental value: 1.87%

molecule: O=C(Nc1cccc(CN2CCN(Cc3ccc(O)cc3)CC2)c1)c1ccc(-c2ccccc2)cc1
target desc: Glucose transporter (Leishmania mexicana)
experimental value: -3.36%

molecule: c1ccc(Oc2ccc(Nc3ccnc4cc(-c5ccc(CNCCN6CCOCC6)o5)ccc34)cc2)cc1
target desc: Glucose transporter (Leishmania mexicana)
experimental value: 0.92%

molecule: O=C(Nc1ccc(OC2CCN(Cc3ccc(F)cc3)C2)cc1)c1ccco1 (stereo not given)
target desc: Glucose transporter (Leishmania mexicana)
experimental value: 3.15%

molecule: O=C(C1CCCC1)N1CCOC(CCN2CCC(c3ccccc3)CC2)(c2ccc(Cl)c(Cl)c2)C1 (stereo not given)
target desc: Glucose transporter (Leishmania mexicana)
experimental value: 11.7%

molecule: COc1ccc(C2CC(=O)C3=C(C2)NC(C)=C(C(=O)OC(C)C)C3c2ccccc2F)cc1OC (stereo not given)
target desc: Glucose transporter (Leishmania mexicana)
experimental value: 1.65%

molecule: CS(=O)(=O)CCNCc1ccc(-c2cc3c(Nc4ccc(OCc5cccc(F)c5)c(Cl)c4)ncnc3s2)[nH]1
target desc: Glucose transporter (Leishmania mexicana)
experimental value: 0.92%

molecule: CC(CN1CCN(C)CC1)C(=O)Nc1cccc(-c2ccc(-c3nc4ccccc4[nH]3)s2)c1 (stereo not given)
target desc: Glucose transporter (Leishmania mexicana)
experimental value: -3.97%

molecule: CC(C)CNCc1cccc(-c2ccc(CNc3ccc4ncccc4c3)cc2)c1
target desc: Glucose transporter (Leishmania mexicana)
experimental value: -0.62%

molecule: Cc1cccc2nc(-c3ccc(-c4ccc(NC(=O)NC5CC5c5ccccc5)cc4)cc3)[nH]c12 (stereo not given)
target desc: Glucose transporter (Leishmania mexicana)
experimental value: 4.78%

molecule: N#Cc1ccc2c(c1)CCN(CCC1CCC(NC(=O)c3ccc(-c4ccccc4)s3)CC1)CC2 (stereo not given)
target desc: Glucose transporter (Leishmania mexicana)
experimental value: 2.43%

molecule: COc1ccc(CNCc2ccc(-c3ccc(-c4nc5cc(C(F)(F)F)ccc5[nH]4)cc3)cc2)cc1
target desc: Glucose transporter (Leishmania mexicana)
experimental value: 3.06%

molecule: COc1cccc(-c2ccc3c(-c4ccc(F)cc4)cnc(N)c3c2)c1
target desc: Glucose transporter (Leishmania mexicana)
experimental value: 2.91%

molecule: CN(C)CCN(C)Cc1ccc(-c2ccc3c(Nc4ccc(F)cc4Cl)ccnc3c2)o1
target desc: Glucose transporter (Leishmania mexicana)
experimental value: -0.21%

molecule: CC(C)n1cc(CN2CCCC(C(=O)Nc3cccc(-c4cc5ccccc5[nH]4)c3)C2)cn1 (stereo not given)
target desc: Glucose transporter (Leishmania mexicana)
experimental value: -0.59%

molecule: COc1ccc(-c2ccc(NC(=O)c3cccc(C#N)c3)cc2)cc1CN1CCC(O)CC1
target desc: Glucose transporter (Leishmania mexicana)
experimental value: 2.05%

molecule: O=C(/C=C/c1ccc(Cl)c(Cl)c1)NCCCCCN1CCCN(C(=O)Nc2ccc(OC(F)F)cc2)CC1
target desc: Glucose transporter (Leishmania mexicana)
experimental value: 0.91%

molecule: O=C(Nc1ccc(-c2ccc(-c3nc4ccccc4[nH]3)s2)cc1)Nc1ccsc1
target desc: Glucose transporter (Leishmania mexicana)
experimental value: 4.17%

molecule: Cc1nc(-c2cccc(Nc3nccc(NCC(O)c4ccc(C(F)(F)F)cc4)n3)c2)cs1 (stereo not given)
target desc: Glucose transporter (Leishmania mexicana)
experimental value: -0.68%

molecule: Cc1nnsc1C(=O)Nc1cccc(-c2csc(-c3nc4ccccc4[nH]3)c2)c1
target desc: Glucose transporter (Leishmania mexicana)
experimental value: 1.45%

molecule: CCn1ccc2c(N3CCCS3(=O)=O)cc(C(=O)N[C@@H](Cc3ccccc3)[C@H](O)CNC(C)(C)CCCC(C)C)cc21
target desc: Glucose transporter (Leishmania mexicana)
experimental value: 2.41%

molecule: c1cc(CNCC2CCCO2)cc(-c2csc(-c3nc4ccccc4[nH]3)c2)c1 (stereo not given)
target desc: Glucose transporter (Leishmania mexicana)
experimental value: 2.04%

molecule: CN(C)CCN(C)Cc1ccc(-c2ccc(NS(=O)(=O)c3cccc4cccnc34)cc2)cc1
target desc: Glucose transporter (Leishmania mexicana)
experimental value: 3.58%

molecule: O=C(C=Cc1ccc(F)cc1)N1CCN(S(=O)(=O)c2ccc(Cl)cc2)CC1
target desc: Glucose transporter (Leishmania mexicana)
experimental value: 4.67%
